target: UniProt:P37288; assay: Human V1a agonist effect (intracellular calcium mobilization in transfected CHO cells); format: cell-based; parameters: expressed in transfected cells; host or cells: CHO cells; conditions: compound at 1 μM, control response to 1 μM AVP, Ca2+ fluorescence
measurement label: V1a agonist effect, % of control agonist response (AVP) (%)
Dear colleague, please return just the value in %, with no unit written.

Query V1a agonist effect, % of control agonist response (AVP) for O=C1CN2Cc3ccccc3N(C(=O)c3ccc(NC(=O)c4ccccc4-c4ccccc4)cc3Cl)C[C@H]2CO1 [Compound 16]
−1

Query V1a agonist effect, % of control agonist response (AVP) for O=C(Nc1ccc(C(=O)N2C[C@@H](CO)NCc3ccccc32)c(Cl)c1)c1ccccc1-c1ccccc1 [Compound 14]
−1

Query V1a agonist effect, % of control agonist response (AVP) for O=C(O)CN1Cc2ccccc2N(C(=O)c2ccc(NC(=O)c3ccccc3-c3ccccc3)cc2Cl)C[C@H]1CO [Compound 17]
−1

Query V1a agonist effect, % of control agonist response (AVP) for O=C(Nc1ccc(C(=O)N2C[C@H]3COC(O)CN3Cc3ccccc32)c(Cl)c1)c1ccccc1-c1ccccc1 (stereo partly shown) [Compound 19]
−1

* * *

target: human V1a receptors (Homo sapiens, UniProt P37288); test: Human V1a antagonist effect (AVP-induced calcium mobilization in transfected CHO cells); format: cell-based; parameters: expressed in transfected cells; host or cells: CHO cells; details: inhibition of response to 10 nM AVP, Ca2+ fluorescence, read-out: V1a antagonism IC50
Sequence (P37288 whole entry): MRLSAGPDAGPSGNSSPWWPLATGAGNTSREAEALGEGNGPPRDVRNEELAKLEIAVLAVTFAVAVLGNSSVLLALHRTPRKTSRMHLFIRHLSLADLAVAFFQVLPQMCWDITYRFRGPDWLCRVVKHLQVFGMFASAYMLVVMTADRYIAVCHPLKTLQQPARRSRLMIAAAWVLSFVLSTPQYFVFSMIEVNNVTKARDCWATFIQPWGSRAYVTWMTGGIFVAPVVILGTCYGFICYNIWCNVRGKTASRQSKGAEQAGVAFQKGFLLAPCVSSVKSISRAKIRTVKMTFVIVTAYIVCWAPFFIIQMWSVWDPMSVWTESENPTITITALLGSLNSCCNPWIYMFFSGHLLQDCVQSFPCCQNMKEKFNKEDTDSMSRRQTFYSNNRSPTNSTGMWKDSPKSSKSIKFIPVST
pIC50: −log10 of the molar value.
Consider the following compounds; for each one, report its pIC50.

Query pIC50 for O=C(Nc1ccc(C(=O)N2C[C@H]3COC(O)CN3Cc3ccccc32)c(Cl)c1)c1ccccc1-c1ccccc1 (stereo partly drawn)
4.70

Query pIC50 for "O=C(Nc1ccc(C(=O)N2C[C@@H](CO)NCc3ccccc32)c(Cl)c1)c1ccccc1-c1ccccc1"
< 4.00

Query pIC50 for "O=C1CN2Cc3ccccc3N(C(=O)c3ccc(NC(=O)c4ccccc4-c4ccccc4)cc3Cl)C[C@H]2CO1"
< 4.00
